- TEST METHOD NOTES: NCI Yeast Anticancer Drug Screen. Data for the sgs1 strain (AID 173)
- CONDITION INFO: S. cerevisiae sgs1 mutant, at 100.0 µM
Compounds without any hit were thinned out: in the full panel of roughly 79,000, 15% have a hit. Calls of active or inactive are those of the source. Rule as the data show it: active = growth inhibition above about 70%; inactive = the rest.
Would you mind answering with one of these outcomes? active, inactive

Query: Outcome? CCOC(=O)[C@H]1Nc2ccccc2C2c3ccccc3CC21 (some centres undefined)
Response: active

Query: Consider next the compound CNC1C(OC2C(OC3C(O)C(O)C(N=C(N)N)C(O)C3N=C(N)N)OC(C)C2(O)CO)OC(CO)C(O)C1O (centres undefined) in the same way.
Response: inactive

Query: Consider next the compound "CC(=O)Oc1ccc2c(c1)Cc1cc(N=C3C=CC(=O)O3)ccc1-2" in the same way.
Response: active

Query: Consider next the compound "Fc1ccc(NC(=S)SCc2ccc(Cl)c(Cl)c2)cc1F" in the same way.
Response: active

Query: Consider next the compound "O=C1c2cc([N+](=O)[O-])ccc2-c2cccc(F)c21" in the same way.
Response: inactive

Query: Consider next the compound "CCCCOC(=O)N[C@H]1CCc2cc(OC)c(OC)c(OC)c2-c2ccc(SC)c(=O)cc21" in the same way.
Response: active

More entries:
Query: Outcome? CCCCN1C(=O)N(c2ccc(OCC)cc2)C2N(CCCC)C1C(C)(C)C2(C)C (centres undefined)
Response: active

Query: Consider next the compound "CN(C)c1ccc(Sc2ccc3nc(N)nc(N)c3c2)cc1" in the same way.
Response: inactive

Query: Consider next the compound "Cc1cc(S(=O)(=O)/N=C(/NN)NNc2cccc(C(F)(F)F)n2)c(S)cc1Cl" in the same way.
Response: inactive

Query: Consider next the compound "COc1ccc(Br)c(C(=O)Sc2nnnn2-c2cccc(Cl)c2)c1" in the same way.
Response: active

Query: Consider next the compound "O=C(NNc1ccnc2cc(Cl)ccc12)/C(=C\c1ccccc1Cl)NC(=O)c1ccccc1" in the same way.
Response: inactive

Query: Consider next the compound "CC1=NN(c2cccc(Cl)c2)C(=O)C1" in the same way.
Response: inactive

Query: Consider next the compound "CCC/C(Cl)=N\OC(=O)Nc1cccc(C(F)(F)F)c1" in the same way.
Response: active

Query: Consider next the compound "COc1ccc2nc3cccc([N+](=O)[O-])c3c(NCCN(CCO)CCO)c2c1" in the same way.
Response: active

Query: Consider next the compound "C/C(=N/NC(=S)N1CCCCCC1)c1cccc(/C(C)=N\NC(=S)N2CCCCCC2)n1" in the same way.
Response: active

Query: Consider next the compound "CC(=O)Nc1ccc(/C=C(\C#N)c2ccc(C)cc2)cc1" in the same way.
Response: inactive

Query: Consider next the compound O=C1NC(=O)C2C3C=CC(C3)C12 (centres undefined) in the same way.
Response: active

Query: Consider next the compound "O=Nc1c(NO)ccc2nn(-c3ccccc3)nc12" in the same way.
Response: active

Query: Consider next the compound "CC(=O)Nc1ccc2c(c1)C(=Nc1ccc(C(=O)O)cc1)c1ccccc1-2" in the same way.
Response: active

Query: Consider next the compound "O=S(=O)(CCCl)c1ccccc1Cl" in the same way.
Response: active

Query: Consider next the compound CCCCCCCC1(N=[N+]=[N-])C(=O)c2ccccc2N(C)C1=O (centres undefined) in the same way.
Response: active

Query: Consider next the compound "c1ccc2c(c1)NC(NC1Nc3ccccc3N1)N2" in the same way.
Response: inactive

Query: Consider next the compound "S=C(Nc1ccc(Cl)c(Cl)c1)SCc1ccc2c(c1)OCO2" in the same way.
Response: active

Query: Consider next the compound "CC[n+]1ccc2c(C)c3[nH]c4ccc(O)cc4c3c(C)c2c1" in the same way.
Response: inactive
